The listing below reports pKi for compounds tested on UniProtKB P29274.
Sequence (P29274 whole entry): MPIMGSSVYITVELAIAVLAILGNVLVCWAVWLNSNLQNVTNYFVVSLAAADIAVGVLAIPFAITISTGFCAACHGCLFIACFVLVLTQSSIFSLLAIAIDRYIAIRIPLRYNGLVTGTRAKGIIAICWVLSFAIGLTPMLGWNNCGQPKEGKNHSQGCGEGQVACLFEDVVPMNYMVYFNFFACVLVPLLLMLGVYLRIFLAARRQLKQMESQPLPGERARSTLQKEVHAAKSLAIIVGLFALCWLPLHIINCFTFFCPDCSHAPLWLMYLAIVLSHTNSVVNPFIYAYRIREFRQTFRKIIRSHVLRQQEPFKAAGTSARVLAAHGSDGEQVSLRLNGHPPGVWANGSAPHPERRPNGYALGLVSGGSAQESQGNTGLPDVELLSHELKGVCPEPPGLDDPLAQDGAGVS
pKi: −log10 of the molar value. Counter-ions that a name gives are not always drawn.
measurement.name: pKi

INSERT INTO assay_data (compound, readout_value) VALUES
  ('CCN(C(=O)c1ccc(C(=O)c2cnc3ccccn23)cc1)c1ccccc1', 6.73);

a. Nc1nc(-c2cnc3ccc(F)cn23)c2ccc(C(=O)N3CCCCCC3)cc2n1 [Example 136, HCl salt]
b. O=C(c1ccc2c(-c3cnc4ccc(F)cn34)c[nH]c2c1)N1CCCCCC1
c. O=C(c1ccc(C(=O)N2CCCc3ccccc32)cc1)c1cnc2ccccn12
Please order the records by their reported pKi, lowest number first. Answer format: the labels, in the requested order.
b, c, a
(b: 6.46, c: 6.77, a: 7.08)

###

Overview of reported melting point across a group of compounds:

INSERT INTO measurements (compound, measurement_name, readout_value) VALUES
  ('O=C(c1ccc(C(=O)N2CCCCCC2)cc1)c1cnc2ccc(F)cn12', 'melting point', '165 to 169 °C'),
  ('Cl.N#Cc1ccc2ncc(-c3noc4cc(C(=O)N5CCCCCC5)ccc34)n2c1', 'melting point', '234 to 235 °C'),
  ('CCN(C(=O)c1ccc(C(=O)c2cnc3ccccn23)cc1)c1ccccc1', 'melting point', '141 to 145 °C'),
  ('COCCOCCn1nc(-c2cnc3ccc(F)cn23)c2ccc(C(=O)N3CCCCCC3)cc21.Cl', 'melting point', '159 to 165 °C'),
  ('Cl.Cn1nc(-c2cnc3ccc(C4CC4)cn23)c2ccc(C(=O)N3CCCCCC3)cc21', 'melting point', '> 250 °C'),
  ('Cl.Cn1nc(-c2cnc3ccc(C#N)cn23)c2ccc(C(=O)N3CCCCCC3)cc21', 'melting point', '> 250 °C');

State its melting point: `Cl.O=C(c1ccc2c(-c3cnc4ccc(F)cn34)nn(CCc3ccccc3)c2c1)N1CCCCCC1`
139 to 140 °C

State its melting point: Cl.Cn1nc(-c2cnc3ccc(F)cn23)c2ccc(C(=O)N3CCCCCCC3)cc21 (hydrate or solvate)
241 to 249 °C

State its melting point: `Cc1ccc2ncc(-c3nn(C)c4cc(C(=O)N5CCCCCC5)ccc34)n2c1.Cl`
> 250 °C

State its melting point: `Cl.Cn1nc(-c2cnc3ccc(C(F)(F)F)cn23)c2ccc(C(=O)N3CCCCCC3)cc21`
202 to 204 °C

State its melting point: `Cl.Cn1nc(-c2cnc3ccccn23)c2ccc(C(=O)N3CCCCCC3)cc21`
> 250 °C

State its melting point: `CN(C(=O)c1ccc2c(-c3cnc4ccc(F)cn34)nn(C)c2c1)c1ccccc1.Cl`
> 250 °C

State its melting point: `Cl.O=C(c1ccc2c(-c3cnc4ccc(F)cn34)nn(CCN3CCOCC3)c2c1)N1CCCCCC1`
230 to 245 °C

State its melting point: Cl.Cn1nc(-c2cnc3ccc(C#N)cn23)c2ccc(C(=O)N3CCCCC3)cc21 (hydrate or solvate)
> 250 °C

###

# system.name: human A2A receptor (Homo sapiens)
# assay.name: A2A-antagonist Ca++ functional assay (CGS21680 at EC80)
# experimental.parameters: HEK cells expressing GFP-hA2A and Gα15, inhibition of CGS21680 (EC80)-induced Ca2+ increase
pIC50: −log10 of the molar value.
measurement.name: pIC50

I. Cn1nc(-c2cnc3ccc(F)cn23)c2ccc(C(=O)N3CCCCCC3)cc21
II. CCN(C(=O)c1ccc(C(=O)c2cnc3ccc(Br)cn23)cc1)C1CCCCC1
III. CCN(C(=O)c1ccc(C(=O)c2cnc3ccccn23)nc1)C1CCCCC1
Rank descending by pIC50. Answer format: the labels, in the requested order.
I, III, II

1. O=C(c1ccc2c(-c3cnc4ccc(F)cn34)noc2c1)N1CCCCCC1
2. O=C(c1ccc(C(=O)N(C2CCCCC2)C2CCCCC2)cc1)c1cnc2ccccn12
I'm curious whether 1 or 2 has the smaller pIC50 number. Which is it? Response format: the label of the selected entry.
2
